Data origin, for the record: patent US20100068197A1

- Tested on: P388/ADR cell lines (overexpress the multidrug resistance pump MDR-1)
- assay-summary: Multidrug resistant cell assay, cell viability by ATP-lite
- Type: cell-based, murine
- experimental-conditions: multidrug resistant cells overexpressing MDR-1, 72 hours
- Excerpt: Cytotoxicity of compounds in multidrug resistant cells can be determined by administering compounds to cell lines that overexpress the multidrug resistance pump MDR-1 and determining the viability of the cell lines. P388/ADR cell lines are known to overexpress the multidrug resistance pump MDR-1 (also known as P-glycoprotein-1; Pgp-1). […]
outcome-measure: IC50 (µM)
Number in µM, nothing else.

Consider the following illustrative entries.
> print(dat)
                                  structure                           measured.target  unit.name  experimental.value
1  COc1ccc(N(C)c2nc(NCCNC(C)=O)nc3ccc(C)cc23)cc1  P388/ADR cell lines (overexpress the multidrug resistance pump MDR-1)         µM                 1.4
2  COc1ccc(N(C)c2nc(NCCNC(=O)OC(C)(C)C)nc3ccc(OC)cc23)cc1  P388/ADR cell lines (overexpress the multidrug resistance pump MDR-1)         µM                   2
3  COc1ccc(N(C)c2nc(NCCNC(=O)OC(C)(C)C)nc3ccccc23)cc1OC  P388/ADR cell lines (overexpress the multidrug resistance pump MDR-1)         µM                0.35
4  COc1ccc(N(C)c2nc(NCCOC(=O)[C@H](N)CCCCN)nc3ccccc23)cc1  P388/ADR cell lines (overexpress the multidrug resistance pump MDR-1)         µM               0.022

Next item in the queue.
(Q) Respond only with IC50 recorded for COC(=O)NCCNc1nc(N(C)c2ccc(OC)c(OC)c2)c2ccccc2n1
(A) 0.15

====

Each entry below lists one item and its recorded pIC50 value.
- Test system: P388/ADR cell lines (overexpress the multidrug resistance pump MDR-1)
- assay-summary: Multidrug resistant cell assay, cell viability by ATP-lite
- Format: cell-based, murine
- experimental-conditions: Mus musculus, 72 h, multidrug resistant cells overexpressing MDR-1
- Description: Cytotoxicity of compounds in multidrug resistant cells can be determined by administering compounds to cell lines that overexpress the multidrug resistance pump MDR-1 and determining the viability of the cell lines. P388/ADR cell lines are known to overexpress the multidrug resistance pump MDR-1 (also known as P-glycoprotein-1; Pgp-1). […]
Just so you know, pIC50 here is -log10 of the concentration in molar units; reply with that number alone.

> print(dat)
                                   compound  experimental.value
1  COc1ccc(N(C)c2nc(NCCNC(C)=O)nc3ccccc23)cc1OC [Example 20]                5.03

(Q) Fill in pIC50 for COCCOCCOCCOc1nc(N(C)c2ccc(OC)cc2)c2ccccc2n1 [Example 2] tested with P388/ADR cell lines (overexpress the multidrug resistance pump MDR-1).
(A) 7.13

(Q) Fill in pIC50 for COC(=O)NCCNc1nc(N(C)c2ccc(OC)cc2)c2cc(C)ccc2n1 [Example 30] tested with P388/ADR cell lines (overexpress the multidrug resistance pump MDR-1).
(A) 6.80

(Q) Fill in pIC50 for COc1ccc(N(C)c2nc(NCCOC(=O)CN)nc3ccccc23)cc1 [Example 13] tested with P388/ADR cell lines (overexpress the multidrug resistance pump MDR-1).
(A) 7.74

(Q) Fill in pIC50 for COc1ccc(N(C)c2nc(NCC(O)CN)nc3ccccc23)cc1 (centres unmarked) [Example 44] tested with P388/ADR cell lines (overexpress the multidrug resistance pump MDR-1).
(A) 7.24

(Q) Fill in pIC50 for COC(=O)NCCNc1nc(N(C)c2ccc(OC)c(OC)c2)c2ccccc2n1 [Example 21] tested with P388/ADR cell lines (overexpress the multidrug resistance pump MDR-1).
(A) 6.72

(Q) Fill in pIC50 for COc1ccc(N(C)c2nc(CNC(=O)[C@H](C)NC(=O)OC(C)(C)C)nc3ccccc23)cc1 [Example 50] tested with P388/ADR cell lines (overexpress the multidrug resistance pump MDR-1).
(A) 6.72

(Q) Fill in pIC50 for COc1ccc(N(C)c2nc(NCCNCCNCCN)nc3ccccc23)cc1 [Example 4] tested with P388/ADR cell lines (overexpress the multidrug resistance pump MDR-1).
(A) 6.28

(Q) Fill in pIC50 for COC(=O)NCCNc1nc(N(C)c2ccc(OC)cc2)c2ccccc2n1 [Example 38] tested with P388/ADR cell lines (overexpress the multidrug resistance pump MDR-1).
(A) 7.28

(Q) Fill in pIC50 for COc1ccc(N(C)c2nc(NCCOC(=O)[C@H](N)Cc3c[nH]c4ccccc34)nc3ccccc23)cc1 [Example 35] tested with P388/ADR cell lines (overexpress the multidrug resistance pump MDR-1).
(A) 6.62

(Q) Fill in pIC50 for COC(=O)NCCNc1nc(N(C)c2ccc(OC)cc2)c2cc(OC)ccc2n1 [Example 26] tested with P388/ADR cell lines (overexpress the multidrug resistance pump MDR-1).
(A) 5.13
